- TARGET OR TEST SYSTEM: Full length Human HDAC2 (Homo sapiens)
- Sequence (Q92769 whole entry): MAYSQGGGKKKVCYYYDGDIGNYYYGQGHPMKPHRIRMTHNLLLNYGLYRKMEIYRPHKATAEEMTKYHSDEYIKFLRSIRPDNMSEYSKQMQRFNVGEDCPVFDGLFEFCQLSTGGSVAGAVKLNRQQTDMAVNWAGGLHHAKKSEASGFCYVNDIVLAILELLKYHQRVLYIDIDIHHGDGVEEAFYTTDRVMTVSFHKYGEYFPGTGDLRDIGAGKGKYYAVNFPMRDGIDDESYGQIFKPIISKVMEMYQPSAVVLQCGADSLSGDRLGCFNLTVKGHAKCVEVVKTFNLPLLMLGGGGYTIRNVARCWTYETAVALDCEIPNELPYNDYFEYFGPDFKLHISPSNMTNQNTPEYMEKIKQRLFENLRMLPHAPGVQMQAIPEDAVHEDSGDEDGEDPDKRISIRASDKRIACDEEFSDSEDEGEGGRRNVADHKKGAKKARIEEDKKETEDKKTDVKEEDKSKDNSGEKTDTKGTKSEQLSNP
pIC50: −log10 of the molar value.
VALUE KIND: pIC50

Reference set (2 entries):
Nc1ccc(-c2ccc(F)s2)nc1NC(=O)N1CCC(c2ncccn2)C1 (single isomer, unassigned) [Compound 40] : > 6.30
Nc1ccc(-c2ccc(F)s2)nc1NC(=O)N1CCC(c2ncc(F)cn2)C1 (single isomer, unassigned) [Compound 43] : < 5.70

Reported pIC50 (Full length Human HDAC2 (Homo sapiens)) for entry Nc1ccc(-c2ccc(F)cc2F)nc1NC(=O)N1CCC(c2ncccn2)C1 (single isomer, unassigned) [Compound 8E2] is 5.70 to 6.00

====

What IC50 was measured for each of the following?
- TARGET OR TEST SYSTEM: HDAC2 (Homo sapiens, UniProt Q92769)
- Construct: host or cells: SH-SY5Y cells
- Sequence (Q92769 whole entry): as above
- ASSAY DETAILS: HDAC2 enzymatic inhibition assay in SH-SY5Y cell lysate with an exogenous substrate (HDAC-Glo 2)
- Type: cell-based
- CONDITION PARAMETERS: SH-SY5Y cells, five hours incubation, HDAC-Glo 2 reagent; class symbols

Before answering, review these 6 worked examples.
Nc1ccc(-c2ccc(Cl)s2)nc1NC(=O)N1CCC(c2ncccn2)C1 (centres unmarked) [Compound 42] : > 2000 nM
Nc1ccc(-c2ccc(F)cc2F)nc1NC(=O)N1CCC(c2cnc(C(F)F)cn2)C1 (centres unmarked) [Compound 37] : > 2000 nM
Cn1ccnc1CC1CCN(C(=O)Nc2nc(-c3ccc(F)cc3F)ccc2N)C1 (centres unmarked) [Compound 36] : 500 to 1000 nM
Nc1ccc(-c2ccc(F)cc2F)nc1NC(=O)N1CC[C@@H](Oc2cccnc2)C1 [Compound 5] : > 2000 nM
Nc1ccc(-c2ccc(F)cc2F)nc1NC(=O)N1CCC(c2ccncc2)C1 (centres unmarked) [Compound 3] : > 2000 nM
Nc1ccc(-c2ccc(F)cc2F)nc1NC(=O)N1CCC(c2ncccn2)C1 (racemic) [Compound 7] : 500 to 1000 nM

Record IC50 for all entries; do not skip any.
1. Nc1ccc(-c2ccc(F)cc2)nc1NC(=O)N1CCC(F)(c2ncc(F)cn2)C1 (single isomer, unassigned) [Compound 52]
2. Cc1cnc(C2CCN(C(=O)Nc3nc(-c4ccc(F)cc4)ccc3N)C2)o1 (centres unmarked) [Compound 46]

Reply |
> 2000 nM
> 2000 nM

====

Heads up, these molecules all have IC50 values measured for Full length Human HDAC1 (Homo sapiens).

Use the examples below as a reference point.
Nc1ccc(-c2ccc(F)cc2)nc1NC(=O)N1CCC(c2ncccn2)C1 (single isomer, unassigned) [Compound 19E2] : < 500 nM
Nc1ccc(-c2ccc(F)cc2F)nc1NC(=O)N1CCC(c2cccnc2)C1 (stereo not drawn) [Compound 2] : 1000 to 2000 nM

Below are some molecules; for each one, tell me its IC50.
1. Nc1ccc(-c2ccc(F)cc2F)nc1NC(=O)N1CCC(F)(c2ncccn2)C1 (stereo not drawn) [Compound 29]
2. Nc1ccc(-c2ccc(F)cc2F)nc1NC(=O)N1CCC(F)(c2ncccn2)C1 (single isomer, unassigned) [Compound 29E1]
3. Nc1ccc(-c2ccc(F)cc2F)nc1NC(=O)N1CCC(Oc2ncccn2)C1 (stereo not drawn) [Compound 23]
4. Nc1ccc(-c2ccc(F)cc2F)nc1NC(=O)N1CCC(c2ncccn2)C1 (single isomer, unassigned) [Compound 8E2]
5. Nc1ccc(-c2ccc(F)cc2)nc1NC(=O)N1CCC(F)(c2ncc(F)cn2)C1 (single isomer, unassigned) [Compound 53]

Reply |
1: < 500 nM; 2: < 500 nM; 3: > 2000 nM; 4: 1000 to 2000 nM; 5: < 500 nM

For each of the molecules below, state IC50.
1. Nc1ccc(-c2ccc(F)cc2)nc1NC(=O)N1CCC(c2ncccn2)C1 (single isomer, unassigned) [Compound 19E1]
2. Nc1ccc(-c2ccc(F)cc2F)nc1NC(=O)N1CCC(c2ncc(F)cn2)C1 (single isomer, unassigned) [Compound 14E1]

Reply |
1: 500 to 1000 nM; 2: < 500 nM
